# ASSAY PROCEDURE: Acute intramuscular toxicity (LD50) in uninfected mice
# APPLIED CONDITIONS: mouse, in vivo, im, read-out: Approximate Acute Intramuscular LD50
READOUT KIND: LD50 (mg/kg)
One number for each entry, in mg/kg.

A selection of reference data follows.
>  <COMPOUND>
C[N+]1([O-])CCN(c2ccc(CO)c(Cl)c2)CC1

>  <UNIT TEXT>
mg/kg

>  <RESULT>
1500

$$$$
>  <COMPOUND>
CCN1CCN(c2ccc(CO)c(Cl)c2)CC1 [C2 H5 des N-oxide, reference compound]

>  <UNIT TEXT>
mg/kg

>  <RESULT>
150

$$$$
>  <COMPOUND>
CN1CCN(c2ccc(CO)c(Cl)c2)CC1 [CH3 des N-oxide, reference compound]

>  <UNIT TEXT>
mg/kg

>  <RESULT>
200

$$$$

# ---- query compound ----
## Input Fill blank: measured LD50 of the compound CC(C)N1CCN(c2ccc(CO)c(Cl)c2)CC1 [CH(CH3)2 des N-oxide, reference compound] is ____.
## Output 100
